# Test system: SK-MES-1
# TEST SUMMARY: relative viability (nuclei count vs DMSO), 5 days (fraction); higher = more cells survive
# MEASUREMENT SETUP: first compound 8 µM
relative viability overview
READOUT: relative viability

>  <MOLECULE>
Nc1cccc2c1CN(C1CCC(=O)NC1=O)C2=O (configuration not stated) [Lenalidomide] + Nc1nc2[nH]cc(CCc3ccc(C(=O)N[C@@H](CCC(=O)O)C(=O)O)cc3)c2c(=O)[nH]1 [Pemetrexed] (partner 0.2 µM)

>  <READOUT>
relative viability

>  <QUANTITATIVE READOUT>
0.888

$$$$
>  <MOLECULE>
Nc1cccc2c1CN(C1CCC(=O)NC1=O)C2=O (configuration not stated) [Lenalidomide] + CC1(C)CCC(c2ccc(Cl)cc2)=C(CN2CCN(c3ccc(C(=O)NS(=O)(=O)c4ccc(N[C@H](CCN5CCOCC5)CSc5ccccc5)c(S(=O)(=O)C(F)(F)F)c4)cc3)CC2)C1 [Navitoclax] (partner 0.5 µM)

>  <READOUT>
relative viability

>  <QUANTITATIVE READOUT>
1.17

$$$$
>  <MOLECULE>
Nc1cccc2c1CN(C1CCC(=O)NC1=O)C2=O (configuration not stated) [Lenalidomide] + Cc1nc(NC(=O)N2CCC[C@H]2C(N)=O)sc1-c1ccnc(C(C)(C)C(F)(F)F)c1 [Alpelisib] (partner 2 µM)

>  <READOUT>
relative viability

>  <QUANTITATIVE READOUT>
0.617

$$$$
>  <MOLECULE>
Nc1cccc2c1CN(C1CCC(=O)NC1=O)C2=O (configuration not stated) [Lenalidomide] + CC(=O)c1c(C)c2cnc(Nc3ccc(N4CCNCC4)cn3)nc2n(C2CCCC2)c1=O [Palbociclib] (partner 0.5 µM)

>  <READOUT>
relative viability

>  <QUANTITATIVE READOUT>
0.156

$$$$
>  <MOLECULE>
Nc1cccc2c1CN(C1CCC(=O)NC1=O)C2=O (configuration not stated) [Lenalidomide] + CCNC(=O)c1noc(-c2cc(C(C)C)c(O)cc2O)c1-c1ccc(CN2CCOCC2)cc1 [Luminespib] (partner 0.01 µM)

>  <READOUT>
relative viability

>  <QUANTITATIVE READOUT>
0.863

$$$$
>  <MOLECULE>
Nc1cccc2c1CN(C1CCC(=O)NC1=O)C2=O (configuration not stated) [Lenalidomide] + Nc1ncn([C@H]2C[C@H](O)[C@@H](CO)O2)c(=O)n1 [Decitabine] (partner 2 µM)

>  <READOUT>
relative viability

>  <QUANTITATIVE READOUT>
0.394

$$$$
>  <MOLECULE>
Nc1cccc2c1CN(C1CCC(=O)NC1=O)C2=O (configuration not stated) [Lenalidomide] + O=C(c1cc(Cc2n[nH]c(=O)c3ccccc23)ccc1F)N1CCN(C(=O)C2CC2)CC1 [Olaparib] (partner 8 µM)

>  <READOUT>
relative viability

>  <QUANTITATIVE READOUT>
0.806

$$$$

###

# System: SW 1573
# TEST SUMMARY: relative viability (nuclei count vs DMSO), 5 days (fraction); higher = more cells survive
# MEASUREMENT SETUP: first compound 0.253 µM
Mark MET only for relative viability values smaller than 0.5; exact matches and larger values are NOT MET.

>  <COMPOUND>
Nc1cccc2c1CN(C1CCC(=O)NC1=O)C2=O (configuration not stated) [Lenalidomide] + Cc1nc(Nc2ncc(C(=O)Nc3c(C)cccc3Cl)s2)cc(N2CCN(CCO)CC2)n1 [Dasatinib] (partner 0.075 µM)

>  <GROUP LABEL>
NOT MET

$$$$
>  <COMPOUND>
Nc1cccc2c1CN(C1CCC(=O)NC1=O)C2=O (configuration not stated) [Lenalidomide] + N=C(N)NC(=N)NCCc1ccccc1 [Phenformin] (partner 250 µM)

>  <GROUP LABEL>
MET

$$$$
>  <COMPOUND>
Nc1cccc2c1CN(C1CCC(=O)NC1=O)C2=O (configuration not stated) [Lenalidomide] + Nc1nc2[nH]cc(CCc3ccc(C(=O)N[C@@H](CCC(=O)O)C(=O)O)cc3)c2c(=O)[nH]1 [Pemetrexed] (partner 0.2 µM)

>  <GROUP LABEL>
NOT MET

$$$$
>  <COMPOUND>
Nc1cccc2c1CN(C1CCC(=O)NC1=O)C2=O (configuration not stated) [Lenalidomide] + Nc1ncn([C@H]2C[C@H](O)[C@@H](CO)O2)c(=O)n1 [Decitabine] (partner 2 µM)

>  <GROUP LABEL>
NOT MET

$$$$
>  <COMPOUND>
Nc1cccc2c1CN(C1CCC(=O)NC1=O)C2=O (configuration not stated) [Lenalidomide] + CC1(C)CCC(c2ccc(Cl)cc2)=C(CN2CCN(c3ccc(C(=O)NS(=O)(=O)c4ccc(N[C@H](CCN5CCOCC5)CSc5ccccc5)c(S(=O)(=O)C(F)(F)F)c4)cc3)CC2)C1 [Navitoclax] (partner 0.5 µM)

>  <GROUP LABEL>
NOT MET

$$$$
>  <COMPOUND>
Nc1cccc2c1CN(C1CCC(=O)NC1=O)C2=O (configuration not stated) [Lenalidomide] + CS(=O)(=O)CCNCc1ccc(-c2ccc3ncnc(Nc4ccc(OCc5cccc(F)c5)c(Cl)c4)c3c2)o1 [Lapatinib] (partner 2 µM)

>  <GROUP LABEL>
NOT MET

$$$$
